Record type: AC50 measurement. Applies to: UniProt:P08908
Sequence (P08908 whole entry): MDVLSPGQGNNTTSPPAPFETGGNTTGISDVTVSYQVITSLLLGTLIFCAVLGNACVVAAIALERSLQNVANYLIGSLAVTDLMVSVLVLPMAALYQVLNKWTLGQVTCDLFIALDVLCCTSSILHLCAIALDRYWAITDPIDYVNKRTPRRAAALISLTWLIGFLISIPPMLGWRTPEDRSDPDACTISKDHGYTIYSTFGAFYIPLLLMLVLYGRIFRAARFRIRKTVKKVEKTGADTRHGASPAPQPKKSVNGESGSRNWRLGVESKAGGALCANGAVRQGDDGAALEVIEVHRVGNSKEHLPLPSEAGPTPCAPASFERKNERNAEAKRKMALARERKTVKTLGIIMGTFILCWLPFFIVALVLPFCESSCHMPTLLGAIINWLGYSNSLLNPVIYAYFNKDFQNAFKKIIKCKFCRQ

input: Using the record for C[C@H]1O[C@@H](O[C@H]2[C@@H](O)C[C@H](O[C@H]3[C@@H](O)C[C@H](O[C@H]4CC[C@@]5(C)[C@H](CC[C@@H]6[C@@H]5CC[C@]5(C)[C@@H](C7=CC(=O)OC7)CC[C@]65O)C4)O[C@@H]3C)O[C@@H]2C)C[C@H](O)[C@@H]1O [DIGITOXIN] , report its AC50.
output: > 30 µM

input: Please do the same for CC[N+](C)(CC)CCOC(=O)C1c2ccccc2Oc2ccccc21 [METHANTHELINE] as well.
output: > 30 µM

input: Next up: CC(C)[N+](C)(CCOC(=O)C1c2ccccc2Oc2ccccc21)C(C)C [PROPANTHELINE]
output: > 30 µM

input: Try this compound next: CO/N=C(\C(=O)N[C@@H]1C(=O)N2C(C(=O)[O-])=C(C[n+]3cccc4c3CCC4)CS[C@H]12)c1csc(N)n1 [CEFPIROME]
output: > 30 µM

input: Lookup OC(CCCN1CCCCC1)(c1ccccc1)c1ccccc1 [DIPHENIDOL]
output: 6.87 µM

input: Another compound to check: CN(CC(=O)O)C(=N)N [CREATINE]
output: > 30 µM

input: Moving on to the next compound: C=C1c2c(Cl)ccc(O)c2C(=O)C2=C(O)[C@]3(O)C(=O)C(C(N)=O)=C(O)[C@@H](N(C)C)[C@@H]3[C@@H](O)[C@H]12 [MECLOCYCLINE]
output: > 30 µM

input: Another compound: CCCCCCCC(=O)N[C@H](CN1CCCC1)[C@H](O)c1ccc2c(c1)OCCO2
output: 14.3 µM

input: Query CNC[C@H](O)c1cccc(O)c1 [PHENYLEPHRINE] next
output: 1.31 µM

input: Now give it for CCCCOc1ccc(CC(=O)NO)cc1 [BUFEXAMAC] too.
output: > 30 µM
